The reported numbers originate from ChEMBL document CHEMBL3600300.

Test system: SK-MEL-2
experiment_notes: Cytotoxicity against human SK-MEL-2 cells after 48 hrs by SRB assay
Assay type: functional, cell-based
test_parameters: SK-MEL-2, 48 h
measure_name: IC50 (nM)
Please respond with the number in nM and leave the unit unwritten.

Using the record for C=C(C)CCC[C@]1(C)OC(=O)[C@]23CC=C4[C@@H](CC[C@H]5C(C)(C)[C@@H](O[C@@H]6OC[C@@H](OS(=O)(=O)O)[C@H](O)[C@H]6O[C@H]6O[C@H](C)[C@@H](O)[C@H](O)[C@H]6O)CC[C@]45C)[C@]2(C)CC(=O)[C@@H]31 , report its IC50. 7360

What IC50 value was documented for this molecule, C=C(C)CCC[C@]1(C)OC(=O)[C@]23CC=C4[C@@H](CC[C@H]5C(C)(C)[C@@H](O[C@@H]6OC[C@@H](OS(=O)(=O)O)[C@H](O)[C@H]6O[C@H]6O[C@H](C)[C@H](O[C@@H]7O[C@H](COS(=O)(=O)O)[C@@H](O)[C@H](O)[C@H]7O)[C@H](O)[C@H]6O)CC[C@]45C)[C@]2(C)CC(=O)[C@@H]31 ? 1250

What value of IC50 has been recorded for this entry: CC(C)CCC[C@]1(C)OC(=O)[C@]23CC=C4[C@@H](CC[C@H]5C(C)(C)[C@@H](O[C@@H]6OC[C@@H](OS(=O)(=O)O)[C@H](O)[C@H]6O[C@H]6O[C@H](C)[C@@H](O)[C@H](O)[C@H]6O)CC[C@]45C)[C@]2(C)CC(=O)[C@@H]31 4090

Recorded IC50 for CC(C)CCC[C@]1(C)OC(=O)[C@]23CC=C4[C@@H](CC[C@H]5C(C)(C)[C@@H](O[C@@H]6OC[C@@H](OS(=O)(=O)O)[C@H](O)[C@H]6O[C@H]6O[C@H](C)[C@H](O[C@@H]7O[C@H](COS(=O)(=O)O)[C@@H](O)[C@H](O)[C@H]7O)[C@H](O)[C@H]6O)CC[C@]45C)[C@]2(C)CC(=O)[C@@H]31 , please? 1470

Which value of IC50 has been reported for C=C(C)CCC[C@]1(C)OC(=O)[C@]23CC=C4[C@@H](CC[C@H]5C(C)(C)[C@@H](O[C@@H]6OC[C@@H](OS(=O)(=O)O)[C@H](O)[C@H]6O[C@@H]6O[C@H](C)[C@@H](O[C@@H]7O[C@H](COS(=O)(=O)O)[C@@H](O)[C@H](O[C@@H]8O[C@H](CO)[C@@H](O)[C@H](OC)[C@H]8O)[C@H]7O)[C@H](O)[C@H]6O[C@@H]6OC[C@@H](O)[C@H](O)[C@H]6O)CC[C@]45C)[C@]2(C)CC(=O)[C@@H]31 in the records? 240

---

Tested on: MCF7
experiment_notes: Cytotoxicity against human MCF7 cells after 48 hrs by SRB assay
Format: functional, cell-based
test_parameters: MCF7, 48 h
Answer each item with its documented pIC50.
Interpret pIC50 as the negative base-10 log of the concentration measured in mol/L.

Query pIC50 on MCF7 for CO[C@@H]1[C@@H](O)[C@H](O[C@@H]2[C@@H](O)[C@H](O[C@H]3[C@H](O)[C@@H](O)[C@H](O[C@H]4[C@H](O[C@H]5CC[C@]6(C)[C@H]7CC[C@]89C(=O)O[C@@](C)(CCC=C(C)C)[C@H]8[C@@H](OC(C)=O)C[C@@]9(C)C7=CC[C@H]6C5(C)C)OC[C@@H](OS(=O)(=O)O)[C@@H]4O)O[C@@H]3C)OC[C@H]2O)O[C@H](CO)[C@H]1O 6.43

Report pIC50 for Cc1c2ccncc2c(C)c2c1[nH]c1ccccc12 [ELLIPTECINE] tested on MCF7. 5.71

Provide value of pIC50 for this record tested with MCF7: CO[C@@H]1[C@@H](O)[C@H](O[C@@H]2[C@@H](O)[C@H](O[C@H]3[C@H](O)[C@@H](O[C@@H]4OC[C@@H](O)[C@H](O)[C@H]4O)[C@H](O[C@H]4[C@H](O[C@H]5CC[C@]6(C)C7=CC[C@]89C(=O)O[C@@](C)(CCCC(C)C)[C@H]8C(=O)C[C@@]9(C)[C@@H]7CC[C@H]6C5(C)C)OC[C@@H](OS(=O)(=O)O)[C@@H]4O)O[C@@H]3C)O[C@H](COS(=O)(=O)O)[C@H]2O)O[C@H](CO)[C@H]1O 6.89
